Tested on: MPP-89;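 note: growth inhibition of human MPP-89 cells, read out with a cell viability assay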
test: cells
Format: functional, cell-based, Homo sapiens
run-conditions: Homo sapiens, MPP-89
Description: SANGER: Inhibition of human MPP-89 cell growth in a cell viability assay.
Please respond with reported IC50 for every item in the list.

State its IC50 on MPP-89: COc1cc(F)c(F)c(Nc2ccc(I)cc2F)c1NS(=O)(=O)C1(CC(O)CO)CC1 (centres undefined)
> 5 µM

State its IC50 on MPP-89: `CC(=O)O[C@@]12CO[C@@H]1C[C@H](O)[C@@]1(C)C(=O)[C@H](O)C3=C(C)[C@@H](OC(=O)[C@H](O)[C@@H](NC(=O)OC(C)(C)C)c4ccccc4)C[C@@](O)([C@@H](OC(=O)c4ccccc4)[C@H]21)C3(C)C`
0.00567 µM

State its IC50 on MPP-89: `O=c1cc(-c2cccc3c2Sc2ccccc2S3)oc(N2CCOCC2)c1`
> 10 µM

State its IC50 on MPP-89: `COC(=O)CNC(=O)C(=O)OC`
1280 µM

State its IC50 on MPP-89: `Cn1cncc1[C@@](N)(c1ccc(Cl)cc1)c1ccc2c(c1)c(-c1cccc(Cl)c1)cc(=O)n2C`
> 16 µM

State its IC50 on MPP-89: `CN(C)C/C=C/C(=O)Nc1cc2c(Nc3ccc(F)c(Cl)c3)ncnc2cc1O[C@H]1CCOC1`
> 0.5 µM

State its IC50 on MPP-89: `COc1ccc(C2=N[C@@H](c3ccc(Cl)cc3)[C@@H](c3ccc(Cl)cc3)N2C(=O)N2CCNC(=O)C2)c(OC(C)C)c1`
> 8 µM

State its IC50 on MPP-89: `CO[C@H]1C[C@@H]2CC[C@@H](C)[C@@](O)(O2)C(=O)C(=O)N2CCCC[C@H]2C(=O)O[C@H]([C@H](C)C[C@@H]2CC[C@@H](O)[C@H](OC)C2)CC(=O)[C@H](C)/C=C(\C)[C@@H](O)[C@@H](OC)C(=O)[C@H](C)C[C@H](C)/C=C/C=C/C=C/1C`
> 0.1 µM

State its IC50 on MPP-89: `COc1ccc(-c2ccc3c(N4CCOC[C@@H]4C)nc(N4CCOC[C@@H]4C)nc3n2)cc1CO`
0.469 µM

State its IC50 on MPP-89: `C=CCNC1=C2C[C@@H](C)C[C@H](OC)[C@H](O)[C@@H](C)/C=C(\C)[C@H](OC(N)=O)[C@@H](OC)/C=C\C=C(/C)C(=O)NC(=CC1=O)C2=O`
0.141 µM

State its IC50 on MPP-89: `CN(c1ncccc1CNc1nc(Nc2ccc3c(c2)CC(=O)N3)ncc1C(F)(F)F)S(C)(=O)=O`
> 2.56 µM

State its IC50 on MPP-89: COc1cc([C@@H]2c3cc4c(cc3[C@@H](O[C@@H]3O[C@@H]5CO[C@@H](C)O[C@H]5[C@H](O)[C@H]3O)[C@H]3COC(=O)[C@H]23)OCO4)cc(OC)c1O [ETOPOSIDE]
> 16 µM

State its IC50 on MPP-89: O=C(/C=C/c1ccccc1)NC(NC(=S)Nc1cccc2cccnc12)C(Cl)(Cl)Cl (centres undefined)
> 16 µM

State its IC50 on MPP-89: CN(Cc1cnc2nc(N)nc(N)c2n1)c1ccc(C(=O)N[C@@H](CCC(=O)O)C(=O)O)cc1 [METHOTREXATE]
> 0.2 µM
